# Test system: IKK-epsilon
# Construct: gene IKBKE
# Test context: concentration: 1 μM,replicates: in singlicate; n = 1;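 also: KINOMEscan kinase panel screen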
Exercise: state measured %Inh for each of the compounds provided.
Give bare numbers, in %.

// below: answered compounds
CC(C)Nc1cc(-c2ccc3c(N)n[nH]c3c2)nc(N)n1: 32
NC(=O)c1cc(-c2ccccc2)cc2c(C3CCNCC3)c[nH]c12: 20
C=CC(=O)Nc1cc2c(Nc3ccc(F)c(Cl)c3)ncnc2cc1OCCCN1CCOCC1: 0

Take each entry in turn and give its %Inh.
1. Cc1cc(C(=O)Nc2ccc(Oc3ccc4nc(NC(=O)C5CC5)cn4n3)cc2)nn1-c1ccccc1
2. Cl.Cl.NC[C@H](CC1CCCCC1)NC(=O)c1cc(Br)c(-c2ccnc3[nH]ccc23)s1
3. C[C@H]1Oc2cc(cnc2N)-c2c(nn(C)c2C#N)CN(C)C(=O)c2ccc(F)cc21
4. Cl.Cl.Nc1nc(-c2ccc3c(N)n[nH]c3c2)cc(N2CCCC(NC(=O)c3ccccc3)C2)n1 (centres unmarked)
5. Cl.Cl.NC[C@H](Cc1ccc(C(F)(F)F)cc1)NC(=O)c1cc(Br)c(-c2ccnc3[nH]ccc23)s1

Resp:
1. 0
2. 0
3. 0
4. 80
5. 11

---

# Test system: p38-gamma
# Construct: gene MAPK12
# Test context: concentration: 1 μM,replicates: in singlicate; n = 1
Exercise: state measured %Inh for each of the compounds provided.
Answers are plain numbers, in %.

// below: answered compounds
Cc1n[nH]c2ccc(-c3cc(OC[C@@H](N)Cc4ccccc4)cnc3-c3ccoc3)cc12.O=C(O)C(F)(F)F.O=C(O)C(F)(F)F [GSK507358]: 33
Cl.Cl.NC[C@H](Cc1ccc(C(F)(F)F)cc1)NC(=O)c1cc(Br)c(-c2ccnc3[nH]ccc23)s1 [GSK1487252]: 38
O=C(NCCCN1CCOC1=O)c1cnc(NCc2cc(Cl)ccc2Cl)nc1NC1CCCC1: 1
COc1ccc(C[C@@H](CN)NC(=O)c2cc(Br)c(-c3ccnc4[nH]ccc34)s2)cc1.Cl.Cl [GSK1389063]: 0

Take each entry in turn and give its %Inh.
1. CCN(CC)CCCCNc1ncc2cc(-c3c(Cl)cccc3Cl)c(NC(=O)NC(C)(C)C)nc2n1
2. Cl.Cl.Nc1nc(-c2ccc3c(N)n[nH]c3c2)cc(N2CCCC(NC(=O)c3ccccc3)C2)n1 (centres unmarked) [GSK2286775]
3. CCN(CC)CCOc1ccc(Nc2ncc3cc(-c4c(Cl)cccc4Cl)c(=O)n(C)c3n2)cc1 [SB-601273]
4. CNC(=O)c1ccccc1Sc1ccc2c(/C=C/c3ccccn3)n[nH]c2c1

Resp:
1: 26; 2: 21; 3: 18; 4: 25

---

# Test system: SBK1
# Test context: concentration: 1 μM,replicates: in singlicate; n = 1
Exercise: state measured %Inh for each of the compounds provided.
Give bare numbers, in %.

// below: answered compounds
C[C@H]1Oc2cc(cnc2N)-c2c(nn(C)c2C#N)CN(C)C(=O)c2ccc(F)cc21: 69
C[C@@H]1CCN(C(=O)CC#N)C[C@@H]1N(C)c1ncnc2[nH]ccc12: 0
C=CC(=O)Nc1cc2c(Nc3ccc(F)c(Cl)c3)ncnc2cc1OCCCN1CCOCC1: 0
C[C@@H](Oc1cc(-c2cnn(C3CCNCC3)c2)cnc1N)c1c(Cl)ccc(F)c1Cl: 80
Cl.Oc1cc(-c2nc(-c3ccccc3)[nH]c2-c2ccncc2)ccc1Cl: 24
CCN(CC)CCCCNc1ncc2cc(-c3c(Cl)cccc3Cl)c(NC(=O)NC(C)(C)C)nc2n1: 0

Take each entry in turn and give its %Inh.
1. NC(=O)c1cc(-c2ccccc2)cc2c(C3CCNCC3)c[nH]c12
2. CN(C)CCOc1ccc(-c2cc(-c3c[nH]nc3-c3ccccn3)ccn2)cc1
3. Cc1ccc2c(-c3ccncc3)c(-c3ccc(F)cc3)nn2c1.Cl
4. CCN(CC)CCOc1ccc(Nc2ncc3cc(-c4c(Cl)cccc4Cl)c(=O)n(C)c3n2)cc1
5. Cl.Cl.NC[C@H](CC1CCCCC1)NC(=O)c1cc(Br)c(-c2ccnc3[nH]ccc23)s1
6. O=C(NCCNc1ccnc(NCc2ccc(F)cc2)n1)c1cc2ccccc2s1

Resp:
1. 31
2. 21
3. 22
4. 66
5. 69
6. 7

Take each entry in turn and give its %Inh.
1. Cl.Cl.Nc1nc(-c2ccc3c(N)n[nH]c3c2)cc(N2CCCC(NC(=O)c3ccccc3)C2)n1 (centres unmarked)
2. Cc1cc2cn[nH]c2cc1-c1cccc2c(N)c(C(N)=O)nnc12
3. COc1ccc(C[C@@H](CN)NC(=O)c2cc(Br)c(-c3ccnc4[nH]ccc34)s2)cc1.Cl.Cl
4. Cc1n[nH]c2ccc(-c3cc(OC[C@@H](N)Cc4ccccc4)cnc3-c3ccoc3)cc12.O=C(O)C(F)(F)F.O=C(O)C(F)(F)F
5. CC(C)N1C(=O)Cc2cc(Nc3ncc(C(F)(F)F)c(NCc4cccc(S(C)(=O)=O)c4)n3)ccc21

Resp:
[6, 42, 81, 9, 72]

---

# Test system: PIP5K1A
# Test context: concentration: 1 μM,replicates: in singlicate; n = 1
Observation type: %Inh (%)
Answers are plain numbers, in %.

Take each entry in turn and give its %Inh.
1. Cc1cc2cn[nH]c2cc1-c1cccc2c(N)c(C(N)=O)nnc12
2. CCN(CC)CCCCNc1ncc2cc(-c3c(Cl)cccc3Cl)c(NC(=O)NC(C)(C)C)nc2n1
3. C=CC(=O)Nc1cc2c(Nc3ccc(F)c(Cl)c3)ncnc2cc1OCCCN1CCOCC1 [GW781483]
4. CCn1c(-c2nonc2N)nc2c(C#CC(C)(C)O)nc(OCCN)cc21.Cl.Cl [GSK902056]
5. Cc1ccc2c(-c3ccncc3)c(-c3ccc(F)cc3)nn2c1.Cl [GW461484]

Resp:
[16, 0, 18, 1, 24]

Take each entry in turn and give its %Inh.
1. Cl.Cl.NC[C@H](CC1CCCCC1)NC(=O)c1cc(Br)c(-c2ccnc3[nH]ccc23)s1 [GSK1581427]
2. Cl.Cl.NC[C@H](Cc1ccc(C(F)(F)F)cc1)NC(=O)c1cc(Br)c(-c2ccnc3[nH]ccc23)s1 [GSK1487252]
3. CN(C)CCOc1ccc(-c2cc(-c3c[nH]nc3-c3ccccn3)ccn2)cc1 [GW835314]
4. CC(C)N1C(=O)Cc2cc(Nc3ncc(C(F)(F)F)c(NCc4cccc(S(C)(=O)=O)c4)n3)ccc21
5. CCN(CC)CCOc1ccc(Nc2ncc3cc(-c4c(Cl)cccc4Cl)c(=O)n(C)c3n2)cc1 [SB-601273]
6. C[C@@H](Oc1cc(-c2cnn(C3CCNCC3)c2)cnc1N)c1c(Cl)ccc(F)c1Cl
7. CNC(=O)c1ccccc1Sc1ccc2c(/C=C/c3ccccn3)n[nH]c2c1

Resp:
1. 63
2. 0
3. 0
4. 34
5. 72
6. 0
7. 12

---

# Tested on: ASK1
# Construct: gene MAP3K5
# Test context: concentration: 1 μM,replicates: in singlicate; n = 1
Exercise: state measured %Inh for each of the compounds provided.
Numbers only, in %.

// below: answered compounds
C=CC(=O)Nc1cc2c(Nc3ccc(F)c(Cl)c3)ncnc2cc1OCCCN1CCOCC1: 0
Cc1ccc2c(-c3ccncc3)c(-c3ccc(F)cc3)nn2c1.Cl: 0
Cc1n[nH]c2ccc(-c3cc(OC[C@@H](N)Cc4ccccc4)cnc3-c3ccoc3)cc12.O=C(O)C(F)(F)F.O=C(O)C(F)(F)F: 0
Cl.Cl.NC[C@H](CC1CCCCC1)NC(=O)c1cc(Br)c(-c2ccnc3[nH]ccc23)s1: 0
Cc1ccc(-n2nc(C(C)(C)C)cc2NC(=O)Nc2ccc(OCCN3CCOCC3)c3ccccc23)cc1: 11
C[C@H]1Oc2cc(cnc2N)-c2c(nn(C)c2C#N)CN(C)C(=O)c2ccc(F)cc21: 28

Take each entry in turn and give its %Inh.
1. Cl.Oc1cc(-c2nc(-c3ccccc3)[nH]c2-c2ccncc2)ccc1Cl
2. C[C@@H](Oc1cc(-c2cnn(C3CCNCC3)c2)cnc1N)c1c(Cl)ccc(F)c1Cl

Resp:
1: 12; 2: 0

---

# Test system: LZK
# Construct: gene MAP3K13
# Test context: concentration: 1 μM,replicates: in singlicate; n = 1
Observation type: %Inh
Quick note: number first, unit second.

// below: answered compounds
Cc1occc1-c1nc(N)c(OC[C@@H](N)Cc2c[nH]c3ccccc23)cc1-c1cc2c(C)n[nH]c2cn1: 0%
CCN(CC)CCCCNc1ncc2cc(-c3c(Cl)cccc3Cl)c(NC(=O)NC(C)(C)C)nc2n1: 45%
Cc1n[nH]c2ccc(-c3cc(OC[C@@H](N)Cc4ccccc4)cnc3-c3ccoc3)cc12.O=C(O)C(F)(F)F.O=C(O)C(F)(F)F: 3%

Next compound, %Inh to be filled in.
Req: Recorded %Inh for NC(=O)c1cc(-c2ccccc2)cc2c(C3CCNCC3)c[nH]c12 , please?
Resp: 0%
